- Assay protocol: Cmax in pig urine at 3 mg/kg, iv measured upto 240 mins by LC-MS/MS analysis
- Format: ADME, organism-based, Sus scrofa
Property: Cmax (ng/mL)
Answer format: numeric, ng/mL implied, no suffix.

compound C=C[C@]1(C)C[C@@H](OC(=O)Cn2cc(-c3ccc(Cn4cnc5c(N6CCNCC6)ncnc54)nc3)nn2)[C@]2(C)[C@H](C)CC[C@]3(CCC(=O)[C@H]32)[C@@H](C)[C@@H]1O , Cmax observed: 18700

----------
- Assay protocol: in vitro
- Recorded conditions: mouse, liver microsomes
This section presents compounds with their documented half-life at 0.5 h, 1 µM values.
Entry rule: numbers only, all in min.

C=C[C@]1(C)C[C@@H](OC(=O)CS[C@@H]2CC[C@@H](N)C[C@H]2O)[C@]2(C)[C@H](C)CC[C@]3(CCC(=O)[C@H]32)[C@@H](C)[C@@H]1O :: 11.5

# context switch: different compound, same half-life at 0.5 h, 1 µM
Reported half-life at 0.5 h, 1 µM ( C=C[C@]1(C)C[C@@H](OC(=O)Cn2cc(-c3ccc(Cn4cnc5c(N6CCN(C)CC6)ncnc54)cc3)nn2)[C@]2(C)[C@H](C)CC[C@]3(CCC(=O)[C@H]32)[C@@H](C)[C@@H]1O ) = 1.1

----------
- Assay protocol: in vitro
- Recorded conditions: mouse, liver microsomes
Item-by-item account of half-life at 0.5 h, 1 µM
The reply should contain only the number, in s.

Here are 2 compounds together with their reported answers.
C=C[C@]1(C)C[C@@H](OC(=O)Cn2cc(-c3ccc(Cn4cnc5c(N6CCNCC6)ncnc54)nc3)nn2)[C@]2(C)[C@H](C)CC[C@]3(CCC(=O)[C@H]32)[C@@H](C)[C@@H]1O :: 354
C=C[C@]1(C)C[C@@H](OC(=O)Cn2cc(-c3ccc(Cn4cnc5c(N)ncnc54)c(O)c3)nn2)[C@]2(C)[C@H](C)CC[C@]3(CCC(=O)[C@H]32)[C@@H](C)[C@@H]1O :: 33.6

Next, consider the following compound.
For C=C[C@]1(C)C[C@@H](OC(=O)Cn2cc(-c3ccc(Cn4cnc5c(N)ncnc54)nc3)nn2)[C@]2(C)[C@H](C)CC[C@]3(CCC(=O)[C@H]32)[C@@H](C)[C@@H]1O the compound record lists half-life at 0.5 h, 1 µM as 34.8

----------
Catalogue of IC50 values
- Test target: Cytochrome P450 3A4 (Homo sapiens, UniProt P08684)
- Sequence (P08684 whole entry): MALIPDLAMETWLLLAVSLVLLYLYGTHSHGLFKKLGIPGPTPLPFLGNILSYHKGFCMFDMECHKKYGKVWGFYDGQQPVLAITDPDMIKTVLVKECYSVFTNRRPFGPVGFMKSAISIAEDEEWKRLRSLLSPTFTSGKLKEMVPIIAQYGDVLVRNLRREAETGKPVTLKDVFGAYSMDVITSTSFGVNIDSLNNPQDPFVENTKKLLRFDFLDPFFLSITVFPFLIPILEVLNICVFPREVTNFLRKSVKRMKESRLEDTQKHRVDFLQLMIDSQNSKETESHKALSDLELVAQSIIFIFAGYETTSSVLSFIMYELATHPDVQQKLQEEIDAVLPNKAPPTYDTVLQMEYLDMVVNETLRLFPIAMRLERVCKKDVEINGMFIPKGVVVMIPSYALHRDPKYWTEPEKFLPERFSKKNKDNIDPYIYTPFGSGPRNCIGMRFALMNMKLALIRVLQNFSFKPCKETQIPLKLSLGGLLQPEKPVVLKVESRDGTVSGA
A number alone suffices; assume nM.

C=C[C@]1(C)C[C@@H](OC(=O)CS[C@@H]2CC[C@@H](N)C[C@H]2O)[C@]2(C)[C@H](C)CC[C@]3(CCC(=O)[C@H]32)[C@@H](C)[C@@H]1O :: 750

Here's the next entry for you.
Record C=C[C@]1(C)C[C@@H](OC(=O)Cn2cc(-c3ccc(Cn4cnc5c(N6CCNCC6)ncnc54)nc3)nn2)[C@]2(C)[C@H](C)CC[C@]3(CCC(=O)[C@H]32)[C@@H](C)[C@@H]1O has Cytochrome P450 3A4 (Homo sapiens, UniProt P08684) IC50 equal to 410

----------
- Test target: Voltage-gated inwardly rectifying potassium channel KCNH2 (Homo sapiens, UniProt Q12809)
- Sequence (Q12809 whole entry): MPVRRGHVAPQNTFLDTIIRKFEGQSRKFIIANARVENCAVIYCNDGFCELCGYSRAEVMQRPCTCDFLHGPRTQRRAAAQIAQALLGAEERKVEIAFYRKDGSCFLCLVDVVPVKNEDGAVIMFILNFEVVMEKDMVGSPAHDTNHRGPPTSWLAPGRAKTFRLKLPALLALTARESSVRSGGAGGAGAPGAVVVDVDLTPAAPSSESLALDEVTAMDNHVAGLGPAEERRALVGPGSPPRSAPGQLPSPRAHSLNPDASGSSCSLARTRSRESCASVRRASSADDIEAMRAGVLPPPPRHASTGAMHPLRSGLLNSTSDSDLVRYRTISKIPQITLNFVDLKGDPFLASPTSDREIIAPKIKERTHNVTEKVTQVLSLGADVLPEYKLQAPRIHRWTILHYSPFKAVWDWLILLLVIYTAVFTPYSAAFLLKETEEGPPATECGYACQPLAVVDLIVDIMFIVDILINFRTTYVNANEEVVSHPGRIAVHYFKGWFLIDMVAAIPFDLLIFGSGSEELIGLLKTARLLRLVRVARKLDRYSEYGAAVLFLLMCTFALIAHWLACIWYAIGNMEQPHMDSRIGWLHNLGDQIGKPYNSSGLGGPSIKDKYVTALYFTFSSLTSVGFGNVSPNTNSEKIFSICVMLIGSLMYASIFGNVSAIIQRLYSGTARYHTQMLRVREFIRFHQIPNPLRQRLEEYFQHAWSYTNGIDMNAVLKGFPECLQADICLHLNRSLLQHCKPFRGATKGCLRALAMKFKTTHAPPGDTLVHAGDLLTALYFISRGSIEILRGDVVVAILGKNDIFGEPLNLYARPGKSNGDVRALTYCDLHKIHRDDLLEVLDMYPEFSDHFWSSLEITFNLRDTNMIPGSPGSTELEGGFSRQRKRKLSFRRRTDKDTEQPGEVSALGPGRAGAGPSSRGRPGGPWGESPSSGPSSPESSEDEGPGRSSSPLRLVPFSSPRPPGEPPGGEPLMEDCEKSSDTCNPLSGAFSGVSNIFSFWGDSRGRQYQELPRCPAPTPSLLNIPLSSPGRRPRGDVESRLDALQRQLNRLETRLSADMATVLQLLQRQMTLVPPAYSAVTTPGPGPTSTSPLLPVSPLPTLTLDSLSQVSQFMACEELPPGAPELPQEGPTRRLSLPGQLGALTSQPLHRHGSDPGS
- Assay protocol: Inhibition of K+ ion channel activity of hERG
- Type: toxicity
Property: IC50 (µM)
Answer with a number only, understood to be in µM.

Recorded IC50 (compound C=C[C@]1(C)C[C@@H](OC(=O)CS[C@@H]2CC[C@@H](N)C[C@H]2O)[C@]2(C)[C@H](C)CC[C@]3(CCC(=O)[C@H]32)[C@@H](C)[C@@H]1O ): 78.2
